Reported IC50, cSRC (Homo sapiens, UniProt P12931).

{"compound": "COc1cc(Nc2c(C#N)cnc3cc(OCCON4CCN(C)CC4)c(OC)cc23)ccc1Cl [Compound 19]", "IC50 (nM)": 2}
{"compound": "COc1cc2c(Nc3cccc(OC)c3F)c(C#N)cnc2cc1OCCON1CCN(C)CC1 [Compound 18]", "IC50 (nM)": 34}
{"compound": "COc1cc(Cl)ccc1Nc1c(C#N)cnc2cc(OCCON3CCN(C)CC3)c(OC)cc12 [Compound 20]", "IC50 (nM)": 11}
{"compound": "COc1cc(Nc2c(C#N)cnc3cc(OCCON4CCN(C)CC4)c(OC)cc23)c(F)cc1Cl [Compound 15]", "IC50 (nM)": 2}
{"compound": "COc1cc2c(Nc3cccc(OC)c3Cl)c(C#N)cnc2cc1OCCON1CCN(C)CC1 [Compound 17]", "IC50 (nM)": 14}

---

# experimentalDetails: Metabolic stability in human hepatocytes
# conditionsUsed: hepatocytes
quantity: remaining at 2 h (%)

{"compound": "COc1cc(Nc2c(C#N)cnc3cc(OCCCN4CCN(C)CC4)c(OC)cc23)c(Cl)cc1Cl [Bosutinib, bosutinib, reference compound]", "quantity": "remaining at 2 h", "experimentalValue": 20.7}
{"compound": "COc1ccc(CCN(C)CCCC(C#N)(c2ccc(OC)c(OC)c2)C(C)C)cc1OC (centres unmarked) [Verapamil, reference compound]", "quantity": "remaining at 2 h", "experimentalValue": 4.83}

---

# experimentalDetails: Metabolic stability in mouse hepatocytes
# Type: in vitro ADME
# conditionsUsed: 120 min, BLOD = below level of detection, read-out: Remaining Percentages

{"sampleSmiles": "COc1cc(Cl)ccc1Nc1c(C#N)cnc2cc(OCCON3CCN(C)CC3)c(OC)cc12", "remaining at 2 h [%]": 2.89}

---

# experimentalDetails: Metabolic stability in mouse hepatocytes
# Type: in vitro ADME
# conditionsUsed: 15 min, read-out: Remaining Percentages

{"molecule": "COc1cc(Cl)ccc1Nc1c(C#N)cnc2cc(OCCON3CCN(C)CC3)c(OC)cc12", "remaining at […]": "55.5%"}
{"molecule": "COc1ccc(CCN(C)CCCC(C#N)(c2ccc(OC)c(OC)c2)C(C)C)cc1OC (centres unmarked) [Verapamil, reference compound]", "remaining at […]": "16.7%"}

---

# experimentalDetails: Metabolic stability in human liver microsomes
# Format: in vitro ADME
# conditionsUsed: human liver microsomes; read-out: LMCIint (rate of metabolism)

{"sampleSmiles": "COc1cc(Nc2c(C#N)cnc3cc(OCCON4CCN(C)CC4)c(OC)cc23)c(F)cc1Cl", "microsomal CLint at 1 µM": "321 µL/min/mg"}

---

# studySystem: mutant BCR-ABL1
# experimentalDetails: KinaseProfiler radiometric kinase assay, mutant BCR-ABL1 kinases as a group
# conditionsUsed: read-out: IC50 against (imatinib resistant / relevant) mutant BCR-ABL1 kinases; group of mutants
pIC50: −log10 of the molar value.
// reported pIC50 per item

{"sampleSmiles": "COc1cc2c(Nc3cccc(OC)c3Cl)c(C#N)cnc2cc1OCCON1CCN(C)CC1", "pIC50": "≤ 7.82"}
{"sampleSmiles": "COc1cc(Nc2c(C#N)cnc3cc(OCCON4CCN(C)CC4)c(OC)cc23)c(Cl)cc1Cl", "pIC50": "> 9.00"}
{"sampleSmiles": "COc1cc2c(Nc3cccc(OC)c3F)c(C#N)cnc2cc1OCCON1CCN(C)CC1", "pIC50": "≤ 7.82"}
{"sampleSmiles": "COc1cc(Nc2c(C#N)cnc3cc(OCCON4CCN(C)CC4)c(OC)cc23)c(F)cc1Cl", "pIC50": "> 9.00"}

---

# studySystem: BCR-ABL1 M351T (Homo sapiens, UniProt P00519, M351T)
# Construct: BCR (fusion partner, as the printed name BCR-ABL1 says)
# experimentalDetails: KinaseProfiler radiometric kinase assay, BCR-ABL1 M351T
# conditionsUsed: [ATP] = 10 μM; mean of n = 2
pIC50: −log10 of the molar value.
quantity: pIC50

{"compound": "COc1cc(Nc2c(C#N)cnc3cc(OCCON4CCN(C)CC4)c(OC)cc23)ccc1Cl [Compound 19]", "experimentalValue": 9.00}
{"compound": "COc1cc2c(Nc3cccc(OC)c3F)c(C#N)cnc2cc1OCCON1CCN(C)CC1 [Compound 18]", "experimentalValue": 7.62}
{"compound": "COc1cc2c(Nc3cccc(OC)c3Cl)c(C#N)cnc2cc1OCCON1CCN(C)CC1 [Compound 17]", "experimentalValue": 7.51}
{"compound": "COc1cc(Cl)ccc1Nc1c(C#N)cnc2cc(OCCON3CCN(C)CC3)c(OC)cc12 [Compound 20]", "experimentalValue": 7.89}
{"compound": "COc1cc(Nc2c(C#N)cnc3cc(OCCON4CCN(C)CC4)c(OC)cc23)c(F)cc1Cl [Compound 15]", "experimentalValue": 8.70}

---

# experimentalDetails: Plasma protein binding by equilibrium dialysis, human plasma
# Format: in vitro ADME
# conditionsUsed: plasma; human; 5 μM; read-out: fu, plasma %
quantity: fraction unbound at 6 h, 5 µM

{"compound": "COc1cc(Nc2c(C#N)cnc3cc(OCCON4CCN(C)CC4)c(OC)cc23)c(F)cc1Cl [Compound 15]", "quantity": "fraction unbound at 6 h, 5 µM", "experimentalValue": 0.056}

---

# experimentalDetails: Metabolic stability in human liver microsomes
# Type: in vitro ADME
# conditionsUsed: human liver microsomes
quantity: half-life at 1 µM (min)

{"sampleSmiles": "COc1cc(Nc2c(C#N)cnc3cc(OCCON4CCN(C)CC4)c(OC)cc23)c(F)cc1Cl", "quantity": "half-life at 1 µM", "experimentalValue": 4.3}

---

# experimentalDetails: Caco-2 permeability
# conditionsUsed: human

{"molecule": "COc1cc(Nc2c(C#N)cnc3cc(OCCON4CCN(C)CC4)c(OC)cc23)c(F)cc1Cl [Compound 15]", "Papp A→B at 2 h, 5 µM [×10⁻⁶ cm/s]": 1.9}

---

# studySystem: BCR-ABL1 Y253F (Homo sapiens, UniProt P00519, Y253F)
# Construct: BCR (fusion partner, as the printed name BCR-ABL1 says)
# experimentalDetails: KinaseProfiler radiometric kinase assay, BCR-ABL1 Y253F
# conditionsUsed: [ATP] = 10 μM; mean of n = 2

{"sampleSmiles": "COc1cc(Nc2c(C#N)cnc3cc(OCCON4CCN(C)CC4)c(OC)cc23)c(F)cc1Cl", "unitOfMeasurement": "nM", "IC50": 1}
